Values were extracted from ChEMBL document CHEMBL4311957.

System: Nakaseomyces glabratus
Assay: Antifungal activity against Candida glabrata 587 by microdilution method
Type: functional
The molecules listed here are annotated with their MIC.

1. O=c1c(O)c(-c2ccccc2)oc2ccccc12 [FLAVONOL]: 3.9 to 15.6 µg/mL
2. O=c1c(O)c(-c2ccc(O)c(O)c2)oc2cc(O)cc(O)c12 [QUERCETIN]: 7.8 to 15.8 µg/mL

Query string: State the recorded MIC for this entry: O=c1c(O)c(-c2ccc(O)c(O)c2)oc2cc(O)ccc12 [FISETIN]
Result string: 7.8 to 15.6 µg/mL

Query string: State the recorded MIC for this entry: C[C@@H]1O[C@@H](Oc2c(-c3cc(O)c(O)c(O)c3)oc3cc(O)cc(O)c3c2=O)[C@H](O)[C@H](O)[C@H]1O
Result string: 3.9 to 7.8 µg/mL

Query string: State the recorded MIC for this entry: O=c1cc(-c2ccc(O)c(O)c2)oc2cc(O)cc(O)c12 [LUTEOLIN]
Result string: 3.9 to 7.8 µg/mL

Query string: State the recorded MIC for this entry: C[C@@H]1O[C@@H](Oc2c(-c3ccc(O)c(O)c3)oc3cc(O)cc(O)c3c2=O)[C@H](O)[C@H](O)[C@H]1O [QUERCITRIN]
Result string: 7.8 to 62.5 µg/mL

Query string: State the recorded MIC for this entry: O=c1c(O)c(-c2cc(O)c(O)c(O)c2)oc2cc(O)cc(O)c12 [MYRICETIN]
Result string: 3.9 to 15.7 µg/mL

Query string: State the recorded MIC for this entry: O=c1cc(-c2ccccc2)oc2cc(O)c(O)c(O)c12 [BAICALEIN]
Result string: 1.9 µg/mL

Query string: State the recorded MIC for this entry: O=c1cc(-c2ccccc2)oc2ccccc12 [FLAVONE]
Result string: 62.5 µg/mL

Query string: State the recorded MIC for this entry: O=c1c(O)c(-c2ccccc2)oc2cc(O)cc(O)c12 [GALANGIN]
Result string: 15.6 to 62.5 µg/mL

Query string: State the recorded MIC for this entry: O=c1c(O)c(-c2ccc(O)cc2)oc2cc(O)cc(O)c12 [KAEMPFEROL]
Result string: 31.2 µg/mL
